These entries and their values trace back to ChEMBL document CHEMBL4622869.

TEST_METHOD_NOTES: Half life in Crl:CD(SD) rat at 0.3 mg/kg, iv measured up to 24 hrs by LC-MS/MS analysis
Format: ADME, organism-based
MEASUREMENT_CONDITIONS: in vivo
MEASUREMENT_LABEL: half-life (h)
Report the value in h with no unit label.

// half-life lookup, compound = `CC[C@@H]1CCCN1Cc1sc(NC(=O)c2cnc(N3CCC(C(=O)O)CC3)cn2)nc1-c1ccc(OC)c(C(F)(F)F)c1.Cl.Cl` , result: 2.43

====

TARGET: Muscarinic acetylcholine receptor M3 (Homo sapiens) (UniProt P20309)
Sequence (P20309 whole entry, looked up): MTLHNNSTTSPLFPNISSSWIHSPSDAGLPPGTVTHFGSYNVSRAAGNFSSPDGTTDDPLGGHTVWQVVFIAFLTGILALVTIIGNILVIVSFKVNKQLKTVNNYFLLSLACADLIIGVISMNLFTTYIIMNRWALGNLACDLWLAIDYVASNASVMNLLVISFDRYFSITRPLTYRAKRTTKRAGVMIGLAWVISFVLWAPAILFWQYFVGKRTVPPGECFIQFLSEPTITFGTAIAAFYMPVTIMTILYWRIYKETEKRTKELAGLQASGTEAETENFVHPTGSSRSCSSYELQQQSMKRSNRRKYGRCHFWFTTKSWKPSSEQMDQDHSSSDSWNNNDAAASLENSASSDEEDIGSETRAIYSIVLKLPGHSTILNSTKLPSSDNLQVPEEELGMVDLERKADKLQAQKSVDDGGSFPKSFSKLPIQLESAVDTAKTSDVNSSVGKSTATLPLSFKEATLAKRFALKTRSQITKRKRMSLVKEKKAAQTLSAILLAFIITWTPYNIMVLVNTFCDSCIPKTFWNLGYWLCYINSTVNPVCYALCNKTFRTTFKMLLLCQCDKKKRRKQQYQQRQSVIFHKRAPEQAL
TEST_METHOD_NOTES: Positive allosteric modulation of recombinant human muscarinic acetylcholine receptor M3 expressed in CHOK1 cells assessed as increase in carbachol-induced intracellular calcium flux at 10 uM preincubated for 5 mins followed by carbachol addition by Fluo4-AM dye based FLIPR assay relative to carbachol
Type: functional, cell-based
MEASUREMENT_CONDITIONS: CHO-K1
What fold change (FC) was measured for each of the following?
Number only, no unit.

// fold change (FC) lookup, compound = `C[C@@H]1CCCN1Cc1sc(NC(=O)c2cnc(N3CCC(C(=O)O)CC3)c(F)c2)nc1-c1cc(Cl)cs1.Cl.Cl` , result: 132

// fold change (FC) lookup, compound = `C[C@@H]1CCCN1Cc1sc(NC(=O)c2cnc(N3CCC(C(=O)O)CC3)cn2)nc1-c1cc(Cl)cs1.Cl.Cl` , result: 186

// fold change (FC) lookup, compound = `COc1ccc(-c2nc(NC(=O)c3cnc(OCC(=O)O)cn3)sc2CN2CCCC(C)(C)C2)cc1C(F)(F)F` , result: 175

// fold change (FC) lookup, compound = `COc1ccc(-c2nc(NC(=O)c3ccc(OCC(=O)O)cc3)sc2CN2CCCC(C)(C)C2)cc1C(F)(F)F` , result: 204

====

TEST_METHOD_NOTES: AUCinfinity in Crl:CD(SD) rat at 1 mg/kg, po measured up to 24 hrs by LC-MS/MS analysis
Format: ADME, organism-based
Design: dose 1 mg/kg, time infinity, route oral
MEASUREMENT_CONDITIONS: in vivo
MEASUREMENT_LABEL: AUC(0-inf)
// unit must come after the numeric part

// AUC(0-inf) lookup, compound = `CC[C@@H]1CCCN1Cc1sc(NC(=O)c2cnc(N3CCC(C(=O)O)CC3)cn2)nc1-c1ccc(OC)c(C(F)(F)F)c1.Cl.Cl` , result: 209 ng·h/mL

====

TEST_METHOD_NOTES: Total clearance in Crl:CD(SD) rat at 0.3 mg/kg, iv measured up to 24 hrs by LC-MS/MS analysis
Type: ADME, organism-based
MEASUREMENT_CONDITIONS: in vivo
MEASUREMENT_LABEL: clearance (mL/min/kg)
Report the value in mL/min/kg with no unit label.

// clearance lookup, compound = `CC[C@@H]1CCCN1Cc1sc(NC(=O)c2cnc(N3CCC(C(=O)O)CC3)cn2)nc1-c1ccc(OC)c(C(F)(F)F)c1.Cl.Cl` , result: 15.3

====

TEST_METHOD_NOTES: Volume of distribution at steady state in Crl:CD(SD) rat at 0.3 mg/kg, iv measured up to 24 hrs by LC-MS/MS analysis
Format: ADME, organism-based
MEASUREMENT_CONDITIONS: in vivo, read-out: Vdss
MEASUREMENT_LABEL: Vd (L/kg)
Report the value in L/kg with no unit label.

// Vd lookup, compound = `CC[C@@H]1CCCN1Cc1sc(NC(=O)c2cnc(N3CCC(C(=O)O)CC3)cn2)nc1-c1ccc(OC)c(C(F)(F)F)c1.Cl.Cl` , result: 1.59
